The following sequences are listed with their measured sensor-assay potency score (higher = more potent) values.
# TARGET_OF_ASSAY: GJB7
# ASSAY_REMARKS: pooled miR-30 sensor sort-seq; sequence = guide strand; also: reference of the scale not given here
# CONDITION_PARAMETERS: shRNA
Please respond with just the number, no unit label.

RESIDUES: TATACTAGTAAATTATAGGCGA
ASSAY_RESULT: -0.424
--
RESIDUES: TTCAACACAATACACAAGCATG
ASSAY_RESULT: -0.84
--
RESIDUES: TATTTTTGGAGACAGCACTTAA
ASSAY_RESULT: -0.911
--
RESIDUES: TATTCTAAAACAACTAATGTTA
ASSAY_RESULT: -0.542

Task: Reported sensor-assay potency score (higher = more potent), sequence TTACAGTATAGTACATAGTGAA : ____
Result: -0.477

Task: Reported sensor-assay potency score (higher = more potent), sequence TACAGTATAGTACATAGTGAAT : ____
Result: -1.64

Task: Reported sensor-assay potency score (higher = more potent), sequence TTGTGTGTCACAGAGTAGCTTT : ____
Result: -0.222

====

The following sequences are listed with their measured sensor-assay potency score (higher = more potent) values.
# TARGET_OF_ASSAY: C5orf51
# ASSAY_REMARKS: pooled miR-30 sensor sort-seq; sequence = guide strand
# CONDITION_PARAMETERS: shRNA
Please respond with just the number, no unit label.

Guide cases for sensor-assay potency score (higher = more potent), answers given:
RESIDUES: TTAACTAAGTCTAAAAGCCTAG
TARGET_OF_ASSAY: C5orf51
ASSAY_RESULT: -0.498
//
RESIDUES: AAAATCTTCATCTACTAGCTTG
TARGET_OF_ASSAY: C5orf51
ASSAY_RESULT: -0.0873
//
RESIDUES: TTGATGGATTTGAACATTCTTT
TARGET_OF_ASSAY: C5orf51
ASSAY_RESULT: -0.74
//
RESIDUES: TTATTAGTGACATAACATCTGT
TARGET_OF_ASSAY: C5orf51
ASSAY_RESULT: -0.587
//
RESIDUES: TTTAGCTGTGTCTAGATCTTGG
TARGET_OF_ASSAY: C5orf51
ASSAY_RESULT: 0.753
//
RESIDUES: TTAACTGGATAGGACATCGATA
TARGET_OF_ASSAY: C5orf51
ASSAY_RESULT: -1.18
//
RESIDUES: TTTATCTTCATTACTCACTTGA
TARGET_OF_ASSAY: C5orf51
ASSAY_RESULT: 1.06
//
RESIDUES: TATTAGTGACATAACATCTGTA
TARGET_OF_ASSAY: C5orf51
ASSAY_RESULT: 0.937
//
RESIDUES: TTCAATATCAGAACTTCTGTAA
TARGET_OF_ASSAY: C5orf51
ASSAY_RESULT: 0.18
//
RESIDUES: TTGTATTCCATTCTTGTTCTTT
TARGET_OF_ASSAY: C5orf51
ASSAY_RESULT: -0.072

Task: Reported sensor-assay potency score (higher = more potent), sequence TATCTTAATGTAATACCGCTGT : ____
Result: -0.406

====

# TARGET_OF_ASSAY: NAT8L
# ASSAY_REMARKS: pooled miR-30 sensor sort-seq; sequence = guide strand
# CONDITION_PARAMETERS: shRNA
MEASURED_QUANTITY: sensor-assay potency score (higher = more potent)
Please respond with just the number, no unit label.

Guide cases for sensor-assay potency score (higher = more potent), answers given:
RESIDUES: TGAGTCCACAGACATCCGCAGC
ASSAY_RESULT: -1.61

RESIDUES: TTGGCGATGCCCTTGCCTCGGA
ASSAY_RESULT: -0.817

RESIDUES: TACAGTCTACAAAACTCCCATC
ASSAY_RESULT: -1.25

RESIDUES: TTGTGCACCACGGCGAACTCCA
ASSAY_RESULT: -0.938

RESIDUES: TAACTTATTAGAAAATGTGTTG
ASSAY_RESULT: -0.872

Task: Reported sensor-assay potency score (higher = more potent), sequence TGCCTCGGAAACGTGAGTCCAC : ____
Result: -0.669

Task: Reported sensor-assay potency score (higher = more potent), sequence TTCTCTGTCCCTTCGCTCGCTT : ____
Result: -0.787

Task: Reported sensor-assay potency score (higher = more potent), sequence TCTTAGGGTACAAACTACCGTT : ____
Result: -0.674

Task: Reported sensor-assay potency score (higher = more potent), sequence ATCCGCAGCAGCTCCACCGTGT : ____
Result: -0.56

Task: Reported sensor-assay potency score (higher = more potent), sequence TTGTCCTCCTCGTGGGCCCGTG : ____
Result: -1.12

====

# TARGET_OF_ASSAY: AACS
# ASSAY_REMARKS: pooled miR-30 sensor sort-seq; sequence = guide strand
# CONDITION_PARAMETERS: shRNA
MEASURED_QUANTITY: sensor-assay potency score (higher = more potent)

Guide cases for sensor-assay potency score (higher = more potent), answers given:
RESIDUES: TTGATTCTGCAGTAGTCGCCAT
ASSAY_RESULT: 0.104
//
RESIDUES: TTTTCTGCATAGTTGAGCCGAC
ASSAY_RESULT: -0.296
//
RESIDUES: TACAGATCCAGGGTCTCGGGGT
ASSAY_RESULT: -0.361
//
RESIDUES: TAGGCCTTTAACCACCTGCTGC
ASSAY_RESULT: -1.19

Task: Reported sensor-assay potency score (higher = more potent), sequence TAGCACAGGAGGATGTCACTGC : ____
Result: 0.828

Task: Reported sensor-assay potency score (higher = more potent), sequence TTTGACGGCAACTTCCACTTTC : ____
Result: -0.286

Task: Reported sensor-assay potency score (higher = more potent), sequence TTTCGATGTGTCCACAACCTCA : ____
Result: -1.33

Task: Reported sensor-assay potency score (higher = more potent), sequence TTACAGTGCACACGGGTGCGGC : ____
Result: -0.808

Task: Reported sensor-assay potency score (higher = more potent), sequence TCTGTCATTCTCTTTGTGCCGC : ____
Result: 0.211

====

# TARGET_OF_ASSAY: ZNF517
# ASSAY_REMARKS: pooled miR-30 sensor sort-seq; sequence = guide strand
# CONDITION_PARAMETERS: shRNA
MEASURED_QUANTITY: sensor-assay potency score (higher = more potent)
Please respond with just the number, no unit label.

RESIDUES: TGCTCGTTGAGGGTGAACCTGC
ASSAY_RESULT: -1.07

Task: Reported sensor-assay potency score (higher = more potent), sequence TCGTTCAGCGTGTAGCTCCTGC : ____
Result: -0.267

Task: Reported sensor-assay potency score (higher = more potent), sequence TTCTGGTGCTGCAGCAGCCGGG : ____
Result: -1.68

====

# TARGET_OF_ASSAY: IL32
# ASSAY_REMARKS: pooled miR-30 sensor sort-seq; sequence = guide strand
# CONDITION_PARAMETERS: shRNA
The following sequences are listed with their measured sensor-assay potency score (higher = more potent) values.
Please respond with just the number, no unit label.

Task: Reported sensor-assay potency score (higher = more potent), sequence TAGAGGAGTGAGCTCTGGGTGC : ____
Result: -1.21

Task: Reported sensor-assay potency score (higher = more potent), sequence TAAAATCTTTCTATGGCCTGGT : ____
Result: 0.537

Task: Reported sensor-assay potency score (higher = more potent), sequence TTTTATCATAAAATCTTTCTAT : ____
Result: -0.484

Task: Reported sensor-assay potency score (higher = more potent), sequence TAGGACTGGAAAGAGGACATGA : ____
Result: 0.275

Task: Reported sensor-assay potency score (higher = more potent), sequence TGAAGTCGTCCTCCAGCTCTGC : ____
Result: -1.04

Task: Reported sensor-assay potency score (higher = more potent), sequence TTGCGGGATCCTCAACATCCGG : ____
Result: -1.68

Task: Reported sensor-assay potency score (higher = more potent), sequence TAGGACTTGTCACAAAAGCTCT : ____
Result: -1.15

Task: Reported sensor-assay potency score (higher = more potent), sequence TGCGGGATCCTCAACATCCGGG : ____
Result: -0.63

====

# TARGET_OF_ASSAY: CRX
# ASSAY_REMARKS: pooled miR-30 sensor sort-seq; sequence = guide strand
# CONDITION_PARAMETERS: shRNA
The following sequences are listed with their measured sensor-assay potency score (higher = more potent) values.
Please respond with just the number, no unit label.

Guide cases for sensor-assay potency score (higher = more potent), answers given:
RESIDUES: TAGACGTCTGGGTACTGGGTCT
ASSAY_RESULT: -0.0426

RESIDUES: TAGGTCATGGCATAGGGGGCGG
ASSAY_RESULT: -1.09

RESIDUES: AATAGGAGCTCGGAGACCCATA
ASSAY_RESULT: -1.54

RESIDUES: TGATCCTTGTAGTCCAGAGGGT
ASSAY_RESULT: -0.793

RESIDUES: TGAGAGAATCACTAGGACCTGT
ASSAY_RESULT: -0.0623

RESIDUES: TGTAGGAATCTGAGATGCCCAG
ASSAY_RESULT: -0.841

RESIDUES: TAGCTCTGGCCTGATAGGGAGG
ASSAY_RESULT: -0.851

RESIDUES: TTCAGAGCCACCTCCTCACGGG
ASSAY_RESULT: -0.313

Shifting focus to the sequence that follows.
Task: Reported sensor-assay potency score (higher = more potent), sequence TTGATCTTCAGAGCCACCTCCT : ____
Result: -0.746

Each recorded value in this set is attributed to the OligoGym collection.
